Target: PDE4D (Homo sapiens, UniProt Q08499)
Construct: PDE4D: The catalytic domain of human PDE4B from S3 16-V692; His6 (N); thrombin cleavage site (N); made in house; host or cells: E. coli
Sequence (Q08499 380-756): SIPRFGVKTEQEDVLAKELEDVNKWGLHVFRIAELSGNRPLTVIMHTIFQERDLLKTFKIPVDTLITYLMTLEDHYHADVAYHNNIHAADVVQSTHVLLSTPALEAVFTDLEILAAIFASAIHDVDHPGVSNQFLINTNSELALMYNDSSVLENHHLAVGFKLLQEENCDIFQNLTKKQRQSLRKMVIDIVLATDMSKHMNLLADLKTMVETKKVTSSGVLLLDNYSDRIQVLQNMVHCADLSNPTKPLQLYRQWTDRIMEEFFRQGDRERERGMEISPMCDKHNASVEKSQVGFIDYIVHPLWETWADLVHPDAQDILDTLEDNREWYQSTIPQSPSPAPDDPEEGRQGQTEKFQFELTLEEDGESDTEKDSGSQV
Experiment: PDE4 IC50 determination by Scintillation Proximity Assay, PDE4D
Assay type: biochemical
Conditions: Table 1B, Formula I compounds; read-out: IC50 PDE4D
pIC50: −log10 of the molar value.
quantity_measured: pIC50

{"columns": ["molecule", "experimental_system", "reported_measurement"],
 "data": [
  ["CCOC(=O)c1c(NC2CCCC2)sc(C(=O)c2ccc(OC)cc2)c1N", "PDE4D (Homo sapiens, UniProt Q08499)", "> 5.00"],
  ["N#Cc1c(NC2CCCC2)sc(C(=O)c2cc(C(=O)NC3CC3)no2)c1N", "PDE4D (Homo sapiens, UniProt Q08499)", "> 5.00"],
  ["COC(=O)C(CCSC)Nc1sc(C(=O)c2cccc(Cl)c2)c(N)c1C#N (centres unmarked)", "PDE4D (Homo sapiens, UniProt Q08499)", "> 5.00"],
  ["N#Cc1c(NC2CCOC2=O)sc(C(=O)c2ccc(-c3ccccn3)s2)c1N (centres unmarked)", "PDE4D (Homo sapiens, UniProt Q08499)", "> 5.00"],
  ["N#Cc1c(NC2CCCC2)sc(C(=O)c2cc(-c3ccc([N+](=O)[O-])cc3)no2)c1N", "PDE4D (Homo sapiens, UniProt Q08499)", "< 5.00"],
  ["N#Cc1c(Nc2ccc(C(=O)NC3CCOC3=O)cc2)sc(C(=O)c2coc3ccccc23)c1N (centres unmarked)", "PDE4D (Homo sapiens, UniProt Q08499)", "> 5.00"],
  ["COc1ccccc1Nc1sc(C(=O)c2ccc(C)cc2)c(N)c1C#N", "PDE4D (Homo sapiens, UniProt Q08499)", "> 5.00"],
  ["CC(C)CNc1sc(C(=O)c2cc(-c3ccc(N)cc3)no2)c(N)c1C(N)=O", "PDE4D (Homo sapiens, UniProt Q08499)", "> 5.00"],
  ["CCc1ccccc1Nc1sc(C(=O)c2ccc(OC)cc2OC)c(N)c1C#N", "PDE4D (Homo sapiens, UniProt Q08499)", "> 5.00"],
  ["CC(C)C(C)Nc1sc(C(=O)c2cc(-c3ccc(Cl)c(Cl)c3)no2)c(N)c1C(N)=O (centres unmarked)", "PDE4D (Homo sapiens, UniProt Q08499)", "> 5.00"],
  ["Cc1ccc(C(=O)c2sc(Nc3ccc(Oc4ccccc4)cc3)c(C#N)c2N)c(C)c1", "PDE4D (Homo sapiens, UniProt Q08499)", "< 5.00"],
  ["COc1ccc(C(=O)c2sc(Nc3ccccc3)c(C#N)c2N)cc1", "PDE4D (Homo sapiens, UniProt Q08499)", "> 5.00"],
  ["NC(=O)c1c(NC2CCCC2)sc(C(=O)c2cc(-c3ccc(N)cc3)no2)c1N", "PDE4D (Homo sapiens, UniProt Q08499)", "> 5.00"],
  ["N#Cc1c(NC2CCCC2)sc(C(=O)c2csc3ccccc23)c1N", "PDE4D (Homo sapiens, UniProt Q08499)", "< 5.00"],
  ["N#Cc1c(NC2CCCC2)sc(C(=O)c2cc(-c3ccc(N)cc3)no2)c1N", "PDE4D (Homo sapiens, UniProt Q08499)", "> 5.00"],
  ["N#Cc1c(NC2CCCC2)sc(C(=O)c2ccccc2Cl)c1N", "PDE4D (Homo sapiens, UniProt Q08499)", "> 5.00"],
  ["N#Cc1c(NC2CCOC2=O)sc(C(=O)c2csc3ccccc23)c1N (centres unmarked)", "PDE4D (Homo sapiens, UniProt Q08499)", "> 5.00"]
]}
